From: patent US20230072683A1

molecular target: PI3K-δ (PI3K(p1108/p857) (h)) (Homo sapiens); assay: Evaluation of inhibitory activity against PI3K-δ (HTRF kinase assay); assay type: biochemical; conditions: compound concentration 0.01 μM; read-out: EXP_VALUE(% Inhibition) PI3K-δ 0.01 μM
Sequence (O00329 whole entry): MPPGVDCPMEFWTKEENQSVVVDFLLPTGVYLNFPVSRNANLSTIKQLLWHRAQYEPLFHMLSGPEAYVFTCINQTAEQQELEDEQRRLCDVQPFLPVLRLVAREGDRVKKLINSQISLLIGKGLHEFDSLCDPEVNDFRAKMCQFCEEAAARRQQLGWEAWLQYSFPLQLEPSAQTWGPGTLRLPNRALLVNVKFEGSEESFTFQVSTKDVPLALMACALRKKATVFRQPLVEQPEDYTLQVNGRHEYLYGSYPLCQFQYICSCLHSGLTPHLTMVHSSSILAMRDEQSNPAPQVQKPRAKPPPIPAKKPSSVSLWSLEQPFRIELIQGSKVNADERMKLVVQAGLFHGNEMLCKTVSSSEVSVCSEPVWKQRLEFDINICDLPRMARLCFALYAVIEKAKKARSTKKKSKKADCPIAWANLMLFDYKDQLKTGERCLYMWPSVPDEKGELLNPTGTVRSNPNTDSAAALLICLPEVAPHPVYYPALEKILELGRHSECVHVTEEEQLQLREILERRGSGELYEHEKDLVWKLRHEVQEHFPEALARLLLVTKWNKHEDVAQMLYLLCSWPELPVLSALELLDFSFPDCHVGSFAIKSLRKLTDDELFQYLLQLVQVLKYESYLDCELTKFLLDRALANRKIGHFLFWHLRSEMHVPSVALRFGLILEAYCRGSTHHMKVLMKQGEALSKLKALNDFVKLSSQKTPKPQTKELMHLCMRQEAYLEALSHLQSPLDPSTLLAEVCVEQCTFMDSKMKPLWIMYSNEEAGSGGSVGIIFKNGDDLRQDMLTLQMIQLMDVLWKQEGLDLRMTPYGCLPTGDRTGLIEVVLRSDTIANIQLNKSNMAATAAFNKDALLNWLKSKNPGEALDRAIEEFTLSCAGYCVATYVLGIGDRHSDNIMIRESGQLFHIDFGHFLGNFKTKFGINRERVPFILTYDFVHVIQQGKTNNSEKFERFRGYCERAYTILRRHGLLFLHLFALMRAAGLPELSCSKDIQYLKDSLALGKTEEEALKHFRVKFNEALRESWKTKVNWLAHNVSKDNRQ
Sequence (P27986 whole entry partner): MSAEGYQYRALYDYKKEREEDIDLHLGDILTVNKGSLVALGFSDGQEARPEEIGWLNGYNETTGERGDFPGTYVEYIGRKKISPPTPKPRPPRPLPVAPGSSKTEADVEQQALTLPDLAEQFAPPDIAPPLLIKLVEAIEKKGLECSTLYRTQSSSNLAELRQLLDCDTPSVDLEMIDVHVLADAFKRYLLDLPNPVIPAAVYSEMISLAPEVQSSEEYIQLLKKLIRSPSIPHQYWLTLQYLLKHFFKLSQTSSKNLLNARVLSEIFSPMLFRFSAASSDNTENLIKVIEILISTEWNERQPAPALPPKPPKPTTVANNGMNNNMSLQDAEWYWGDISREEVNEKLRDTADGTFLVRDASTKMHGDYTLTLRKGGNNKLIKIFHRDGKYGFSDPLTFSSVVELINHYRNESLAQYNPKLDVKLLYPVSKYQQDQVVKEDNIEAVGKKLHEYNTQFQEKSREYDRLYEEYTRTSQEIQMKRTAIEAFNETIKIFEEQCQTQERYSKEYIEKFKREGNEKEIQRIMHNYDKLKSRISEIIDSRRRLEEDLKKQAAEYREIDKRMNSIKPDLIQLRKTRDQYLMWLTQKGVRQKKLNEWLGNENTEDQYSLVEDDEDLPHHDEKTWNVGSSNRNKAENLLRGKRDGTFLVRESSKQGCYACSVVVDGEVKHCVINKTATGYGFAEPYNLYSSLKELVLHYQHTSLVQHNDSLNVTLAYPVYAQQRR
OBSERVATION_TYPE: inhibition at 0.01 µM (%)

1) C[C@H](Nc1ncnc2[nH]ccc(=O)c12)c1c(Cl)c2cccc(-c3ccc4ncnn4c3)c2c(=O)n1-c1ccccc1: 89
2) COc1ncc(-c2cccc3c(Cl)c([C@H](C)Nc4ncnc5[nH]ccc(=O)c45)n(-c4ccccc4)c(=O)c23)cc1Cl: 79
3) C[C@H](Nc1ncnc2[nH]ccc(=O)c12)c1c(Cl)c2cccc(N3CCCC3O)c2c(=O)n1-c1ccccc1 (stereo partly shown): 69
4) C[C@H](Nc1ncnc2[nH]ccc(=O)c12)c1c(Cl)c2cccc(-c3ccc(N4CCN(C)CC4)cc3)c2c(=O)n1-c1ccccc1: 86
